Entries and their Emax values follow.
target: Mu-type opioid receptor (Homo sapiens); assay: Activity at monocloned mu opioid receptor expressed in CHO cells by [35S]GTPgammaS binding assay; type: functional, cell-based
Sequence (P35372 whole entry): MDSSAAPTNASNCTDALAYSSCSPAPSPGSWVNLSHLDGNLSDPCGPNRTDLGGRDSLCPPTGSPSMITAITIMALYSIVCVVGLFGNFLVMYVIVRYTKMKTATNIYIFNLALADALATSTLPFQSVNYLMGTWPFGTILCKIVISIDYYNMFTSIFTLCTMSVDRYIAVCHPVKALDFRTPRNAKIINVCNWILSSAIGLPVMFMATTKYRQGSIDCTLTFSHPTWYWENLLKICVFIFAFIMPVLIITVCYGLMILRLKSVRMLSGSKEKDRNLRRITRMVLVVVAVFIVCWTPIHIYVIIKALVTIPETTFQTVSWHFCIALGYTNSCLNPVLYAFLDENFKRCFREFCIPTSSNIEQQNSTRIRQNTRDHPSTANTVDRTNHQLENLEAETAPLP
Please report the result as a number followed by the unit.

Below, each entry is followed by its recorded Emax result.
ITEM_SMILES	Emax
O=C(N[C@H]1CC[C@@]2(O)[C@H]3Cc4ccc(O)c5c4[C@@]2(CCN3CC2CC2)[C@H]1O5)c1cc2ccccc2cn1	58%
O=C(N[C@H]1CC[C@@]2(O)[C@H]3Cc4ccc(O)c5c4[C@@]2(CCN3CC2CC2)[C@H]1O5)c1cnc2ccccc2c1	164%
O=C(N[C@H]1CC[C@@]2(O)[C@H]3Cc4ccc(O)c5c4[C@@]2(CCN3CC2CC2)[C@H]1O5)c1cccnc1	164%
O=C(N[C@@H]1CC[C@@]2(O)[C@H]3Cc4ccc(O)c5c4[C@@]2(CCN3CC2CC2)[C@H]1O5)c1cc2ccccc2cn1	121%

API: the following record is the query input.
[Q] I am curious: what Emax value has been reported for O=C(N[C@@H]1CC[C@@]2(O)[C@H]3Cc4ccc(O)c5c4[C@@]2(CCN3CC2CC2)[C@H]1O5)c1ccc2ccccc2n1 ?
[A] 150%

###

assay: Selectivity ratio of Ki for monocloned kappa opioid receptor to Ki for monocloned mu opioid receptor
Values of Ratio Ki strictly less than 40 map to 1 (yes), and values of at least 40 map to 0 (no).

ITEM_SMILES	CLASS_ASSIGNMENT
O=C(N[C@H]1CC[C@@]2(O)[C@H]3Cc4ccc(O)c5c4[C@@]2(CCN3CC2CC2)[C@H]1O5)c1cc2ccccc2cn1	0 (no)
O=C(N[C@@H]1CC[C@@]2(O)[C@H]3Cc4ccc(O)c5c4[C@@]2(CCN3CC2CC2)[C@H]1O5)c1cnc2ccccc2c1	1 (yes)
O=C(N[C@@H]1CC[C@@]2(O)[C@H]3Cc4ccc(O)c5c4[C@@]2(CCN3CC2CC2)[C@H]1O5)c1ccc2ccccc2c1	1 (yes)

[Q] Dear colleague, could you confirm whether Ratio Ki of COc1cccc2c1[C@]13CCN(CC4CC4)[C@H](C2)[C@]1(OC)CCC(=O)C3 falls below 40? Thanks.
[A] 0 (no)

[Q] Next compound up: O=C(N[C@H]1CC[C@@]2(O)[C@H]3Cc4ccc(O)c5c4[C@@]2(CCN3CC2CC2)[C@H]1O5)c1ccc2ccccc2n1
[A] 0 (no)

[Q] Next compound up: O=C(N[C@H]1CC[C@@]2(O)[C@H]3Cc4ccc(O)c5c4[C@@]2(CCN3CC2CC2)[C@H]1O5)c1cccnc1
[A] 0 (no)

[Q] Next compound up: O=C(N[C@H]1CC[C@@]2(O)[C@H]3Cc4ccc(O)c5c4[C@@]2(CCN3CC2CC2)[C@H]1O5)c1ccccn1
[A] 0 (no)

[Q] Next compound up: O=C(N[C@H]1CC[C@@]2(O)[C@H]3Cc4ccc(O)c5c4[C@@]2(CCN3CC2CC2)[C@H]1O5)c1ccc2ccccc2c1
[A] 0 (no)

###

Entries and their pKi values follow.
biological target: Delta-type opioid receptor (Homo sapiens); experiment: Displacement of [3H]NTI from monocloned delta opioid receptor expressed in CHO cells
Sequence (P41143 whole entry): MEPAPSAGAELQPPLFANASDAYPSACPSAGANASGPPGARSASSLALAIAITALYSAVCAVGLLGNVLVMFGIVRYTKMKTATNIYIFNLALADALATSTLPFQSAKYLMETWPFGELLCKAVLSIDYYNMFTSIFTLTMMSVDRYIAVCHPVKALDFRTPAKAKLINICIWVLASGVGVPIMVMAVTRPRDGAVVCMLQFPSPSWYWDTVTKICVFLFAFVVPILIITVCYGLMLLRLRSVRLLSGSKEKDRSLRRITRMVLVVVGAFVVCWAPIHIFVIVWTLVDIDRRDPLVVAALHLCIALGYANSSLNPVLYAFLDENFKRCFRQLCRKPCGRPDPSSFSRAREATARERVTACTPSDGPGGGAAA
Reminder that pKi means the negative base-10 logarithm of the concentration expressed in mol/L.

Below, each entry is followed by its recorded pKi result.
ITEM_SMILES	pKi
O=C(N[C@H]1CC[C@@]2(O)[C@H]3Cc4ccc(O)c5c4[C@@]2(CCN3CC2CC2)[C@H]1O5)c1ccc2ccccc2n1	6.83
O=C(N[C@H]1CC[C@@]2(O)[C@H]3Cc4ccc(O)c5c4[C@@]2(CCN3CC2CC2)[C@H]1O5)c1cnc2ccccc2c1	7.49
O=C(N[C@H]1CC[C@@]2(O)[C@H]3Cc4ccc(O)c5c4[C@@]2(CCN3CC2CC2)[C@H]1O5)c1cccnc1	7.39
O=C(N[C@@H]1CC[C@@]2(O)[C@H]3Cc4ccc(O)c5c4[C@@]2(CCN3CC2CC2)[C@H]1O5)c1cc2ccccc2cn1	7.81
O=C(N[C@@H]1CC[C@@]2(O)[C@H]3Cc4ccc(O)c5c4[C@@]2(CCN3CC2CC2)[C@H]1O5)c1ccc2ccccc2c1	7.53

[Q] Find pKi (Delta-type opioid receptor (Homo sapiens)) for the entry O=C(N[C@H]1CC[C@@]2(O)[C@H]3Cc4ccc(O)c5c4[C@@]2(CCN3CC2CC2)[C@H]1O5)c1ccccn1
[A] 7.19

[Q] Next compound up: O=C(N[C@@H]1CC[C@@]2(O)[C@H]3Cc4ccc(O)c5c4[C@@]2(CCN3CC2CC2)[C@H]1O5)c1ccc2ccccc2n1
[A] 8.41

###

target: UniProtKB P41145
Sequence (P41145 whole entry): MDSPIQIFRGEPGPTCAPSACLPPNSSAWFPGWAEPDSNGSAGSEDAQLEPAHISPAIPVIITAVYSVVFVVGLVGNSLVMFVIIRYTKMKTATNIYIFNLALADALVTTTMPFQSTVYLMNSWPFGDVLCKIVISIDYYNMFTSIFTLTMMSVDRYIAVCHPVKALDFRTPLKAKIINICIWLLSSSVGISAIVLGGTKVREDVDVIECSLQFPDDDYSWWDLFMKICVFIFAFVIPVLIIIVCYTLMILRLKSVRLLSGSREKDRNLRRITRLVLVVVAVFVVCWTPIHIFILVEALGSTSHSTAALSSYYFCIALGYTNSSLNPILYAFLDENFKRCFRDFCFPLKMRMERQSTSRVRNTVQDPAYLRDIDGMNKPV
Values of Ki strictly less than 8 nM map to MET, and values of at least 8 nM map to NOT MET.

Completed entries (count: 3):
ITEM_SMILES	CLASS_ASSIGNMENT
O=C(N[C@H]1CC[C@@]2(O)[C@H]3Cc4ccc(O)c5c4[C@@]2(CCN3CC2CC2)[C@H]1O5)c1cccnc1	NOT MET
O=C(N[C@@H]1CC[C@@]2(O)[C@H]3Cc4ccc(O)c5c4[C@@]2(CCN3CC2CC2)[C@H]1O5)c1ccccn1	NOT MET
O=C(N[C@@H]1CC[C@@]2(O)[C@H]3Cc4ccc(O)c5c4[C@@]2(CCN3CC2CC2)[C@H]1O5)c1cc2ccccc2cn1	MET

[Q] Dear colleague, could you confirm whether Ki of O=C(N[C@H]1CC[C@@]2(O)[C@H]3Cc4ccc(O)c5c4[C@@]2(CCN3CC2CC2)[C@H]1O5)c1cnc2ccccc2c1 falls below 8 nM? Thanks.
[A] MET

[Q] Next compound up: O=C(N[C@H]1CC[C@@]2(O)[C@H]3Cc4ccc(O)c5c4[C@@]2(CCN3CC2CC2)[C@H]1O5)c1ccccn1
[A] NOT MET

[Q] Next compound up: O=C(N[C@H]1CC[C@@]2(O)[C@H]3Cc4ccc(O)c5c4[C@@]2(CCN3CC2CC2)[C@H]1O5)c1ccc2ccccc2n1
[A] NOT MET

[Q] Next compound up: O=C(N[C@H]1CC[C@@]2(O)[C@H]3Cc4ccc(O)c5c4[C@@]2(CCN3CC2CC2)[C@H]1O5)c1cc2ccccc2cn1
[A] NOT MET

###

target: UniProtKB P35372; assay: Activity at monocloned mu opioid receptor expressed in CHO cells by [35S]GTPgammaS binding assay relative to DAMGO; assay type: functional, cell-based
Entries and their Activity values follow.
Record the value in %, omitting the unit from your answer.

ITEM_SMILES	Activity (%)
O=C(N[C@H]1CC[C@@]2(O)[C@H]3Cc4ccc(O)c5c4[C@@]2(CCN3CC2CC2)[C@H]1O5)c1cc2ccccc2cn1	15.8
O=C(N[C@@H]1CC[C@@]2(O)[C@H]3Cc4ccc(O)c5c4[C@@]2(CCN3CC2CC2)[C@H]1O5)c1cccnc1	29.1
O=C(N[C@@H]1CC[C@@]2(O)[C@H]3Cc4ccc(O)c5c4[C@@]2(CCN3CC2CC2)[C@H]1O5)c1ccc2ccccc2n1	40.9

API: the following record is the query input.
[Q] I am curious: what Activity value has been reported for O=C(N[C@H]1CC[C@@]2(O)[C@H]3Cc4ccc(O)c5c4[C@@]2(CCN3CC2CC2)[C@H]1O5)c1ccncc1 ?
[A] 37.3

###

assay: Selectivity ratio of Ki for monocloned delta opioid receptor to Ki for monocloned mu opioid receptor
MEASUREMENT_KIND: Ratio Ki
In your answer, state the number alone without any accompanying words.

ITEM_SMILES	Ratio Ki
O=C(N[C@H]1CC[C@@]2(O)[C@H]3Cc4ccc(O)c5c4[C@@]2(CCN3CC2CC2)[C@H]1O5)c1ccccn1	24

[Q] I am curious: what Ratio Ki value has been reported for O=C(N[C@@H]1CC[C@@]2(O)[C@H]3Cc4ccc(O)c5c4[C@@]2(CCN3CC2CC2)[C@H]1O5)c1ccc2ccccc2n1 ?
[A] 36

[Q] Next molecule up: O=C(N[C@@H]1CC[C@@]2(O)[C@H]3Cc4ccc(O)c5c4[C@@]2(CCN3CC2CC2)[C@H]1O5)c1cnc2ccccc2c1
[A] 157

[Q] Next molecule up: O=C(N[C@H]1CC[C@@]2(O)[C@H]3Cc4ccc(O)c5c4[C@@]2(CCN3CC2CC2)[C@H]1O5)c1ccc2ccccc2c1
[A] 62

[Q] Next molecule up: O=C(N[C@@H]1CC[C@@]2(O)[C@H]3Cc4ccc(O)c5c4[C@@]2(CCN3CC2CC2)[C@H]1O5)c1ccc2ccccc2c1
[A] 0.5

###

Entries and their Ratio Ki values follow.
test: Selectivity ratio of Ki for monocloned kappa opioid receptor to Ki for monocloned mu opioid receptor
In your answer, state the number alone without any accompanying words.

Below, each entry is followed by its recorded Ratio Ki result.
ITEM_SMILES	READOUT_VALUE
O=C(N[C@@H]1CC[C@@]2(O)[C@H]3Cc4ccc(O)c5c4[C@@]2(CCN3CC2CC2)[C@H]1O5)c1cc2ccccc2cn1	16
O=C(N[C@H]1CC[C@@]2(O)[C@H]3Cc4ccc(O)c5c4[C@@]2(CCN3CC2CC2)[C@H]1O5)c1cnc2ccccc2c1	16
O=C(N[C@@H]1CC[C@@]2(O)[C@H]3Cc4ccc(O)c5c4[C@@]2(CCN3CC2CC2)[C@H]1O5)c1ccccn1	47

API: the following record is the query input.
[Q] I am curious: what Ratio Ki value has been reported for O=C(N[C@@H]1CC[C@@]2(O)[C@H]3Cc4ccc(O)c5c4[C@@]2(CCN3CC2CC2)[C@H]1O5)c1ccc2ccccc2n1 ?
[A] 47
